Sourced from PubChem BioAssay (NCI)

# Tested on: NCI-H23 lung
# Test Details: NCI-60 one-dose screen, 48 h (100 = growth as untreated, 0 = no growth, -100 = all killed)
# Condition Summary: 10 µM unless noted
Compounds without any hit were thinned out: in the full panel of roughly 83,000, 20% have a hit.
Endpoint: growth (%)
Number in %, nothing else.

Some compounds with recorded growth:
Compound: Cn1cc(C(=O)c2nc(-c3c[nH]c4ccccc34)no2)c2cc(F)ccc21
Experimental Result: 65.1

Compound: C[PH+](c1nc2ccccc2nc1[PH+](C)C(C)(C)C)C(C)(C)C.C[PH+](c1nc2ccccc2nc1[PH+](C)C(C)(C)C)C(C)(C)C.[Au+].[Cl-] (centres undefined)
Experimental Result: -90.2

Compound: O=C(CN1C(=O)NC2NC(=O)NC21)N/N=C/c1ccccc1[N+](=O)[O-] (centres undefined)
Experimental Result: 106

Compound: O=C(CSc1nc2ccc([N+](=O)[O-])cc2[nH]1)Nc1ccc([N+](=O)[O-])cc1
Experimental Result: 0.139

Compound: O=C(/C=C/c1ccco1)Nc1ncc(Cc2cccc(C(F)(F)F)c2)s1
Experimental Result: 22.4

Compound: COc1ccc(C2CC(c3ccc(Nc4nc(Nc5ccccc5)nc(Nc5ccccc5)n4)cc3)=NN2C(C)=O)cc1 (centres undefined)
Experimental Result: 97.4

Compound: COc1ccc(/C=C/C(=O)c2cc3c(N)c(C(=O)Nc4cccc5ccccc45)sc3nc2C)cc1
Experimental Result: 85.1

Compound: COC(=O)c1c2c(c(C)[n+]([O-])c1C)C(=O)C(NCc1cccc(OC)c1)=CC2=O
Experimental Result: 25.4

Then this compound:
NCI-H23 lung assay, compound CSc1oc(C)nc1[P+](c1ccccc1)(c1ccccc1)c1ccccc1 , recorded growth = 30

* * *

# Test system: MDA-MB-435 melanoma
# Test Details: NCI-60 one-dose screen, 48 h
# Condition Summary: 10 µM unless noted
Compounds without any hit were thinned out: in the full panel of roughly 83,000, 20% have a hit. Calls of active or inactive are those of the source. The calls were made as follows: active = growth percent below 10; inactive = the rest.
Hi there, use one of these labels in your reply, thanks! 1 (active), -1 (inactive)

Below, 8 compounds whose answers are already recorded.
Compound: COc1ccc(Nc2nnc(-c3ccc(OC)c(OC)c3)o2)cc1
Group: -1
--
Compound: CN(C)Cc1ccc(O)c(C(=O)O)c1
Group: -1
--
Compound: CCCCNC(=O)Oc1ccc(/C(=C(/C)Cc2ccc(OC)cc2)c2ccc(OCCN3CCCC3)cc2)cc1
Group: -1
--
Compound: COC(=O)c1nc(-c2ccc(C)cc2)oc1S(=O)(=O)c1cccc(OC)c1
Group: -1
--
Compound: Cn1c(=O)cc2c3c(c(NCCCO)ccc31)C(=O)c1ccccc1-2
Group: -1
--
Compound: C=C1CC[C@@H]2[C@](C)(COC(C)=O)[C@H](OC(C)=O)CC[C@@]2(C)[C@@H]1CC(Nc1ccc(S(=O)(=O)Nc2ncccn2)cc1)C1=CCOC1=O (some centres undefined)
Group: 1
--
Compound: CC1CN(S(=O)(=O)c2oc(-c3ccc(Cl)cc3)nc2C#N)CC(C)O1 (centres undefined)
Group: -1
--
Compound: Cc1ccc(CNc2ccc3nc(CCC4CCCCC4)[nH]c3c2)cc1
Group: -1

input: What was the test verdict on COc1ccc(Nc2nc(-c3cc(O)c(C)c(C)c3O)cs2)cc1 ?
output: 1

input: What was the test verdict on Cc1c(-c2ccc(O)cc2)n(Cc2ccc(OCCN3CCCCCC3)cc2)c2ccc(O)cc12 ?
output: -1

input: What was the test verdict on Cc1cn(-c2cc(NC(=O)c3cccc(C#Cc4cccc5[nH]nc(N)c45)c3)cc(C(F)(F)F)c2)cn1 ?
output: -1

input: What was the test verdict on NC(=O)CSc1oc(-c2ccccc2)nc1S(=O)(=O)c1ccc(Br)cc1 ?
output: -1

input: What was the test verdict on CCOC(=O)c1cc2c(n1Cc1cc(OC)c(OC)c(OC)c1)-c1nc(N)sc1CCC2 ?
output: 1

input: What was the test verdict on O=C1/C(=C\c2ccc3nccnc3c2)SC(=S)N1CCc1ccc(O)cc1 ?
output: -1

input: What was the test verdict on O=C(CN1CCOCC1)Nc1nc(-c2cc3ccccc3oc2=O)cs1 ?
output: -1

* * *

growth overview
# Tested on: HOP-62 NSCLC
# Test Details: NCI-60 one-dose screen, 48 h (100 = growth as untreated, 0 = no growth, -100 = all killed)
# Condition Summary: 10 µM unless noted
Compounds without any hit were thinned out: in the full panel of roughly 83,000, 20% have a hit.
Number in %, nothing else.

Some compounds with recorded growth:
Compound: CCCCNC(=O)Oc1ccc(/C(=C(/C)Cc2ccc(OC)cc2)c2ccc(OCCN3CCCC3)cc2)cc1
Experimental Result: 79.1
//
Compound: CC1=NC2=Nn3c(c4cnn(-c5ccccc5)c4n/c3=N\N)NN2C(c2ccccc2)=C1
Experimental Result: 96.1
//
Compound: CCCC/C=C/[C@@H]1C[C@H]1CCO
Experimental Result: 90.5

Notebook: C=CCOC(=O)Nc1cccn([C@H](Cc2ccccc2)C(=O)NCCC(C)C)c1=O , growth read as 104

Notebook: CC1(C)COB(OCC(C)(C)COB2OCC(C)(C)CO2)OC1 , growth read as 108

Notebook: COc1ccc(/C=C/C(=O)c2ccc(Nc3ccnc4cc(Cl)ccc34)cc2)cc1 , growth read as 72.3

Notebook: CCOC(=O)c1csc(NC(=O)COc2ccc(/C=C3\Oc4ccccc4C3=O)cc2)n1 , growth read as 72.6

Notebook: CCOC(=O)Cc1cnc(N/N=C(\C)c2cc3ccccc3o2)s1 , growth read as 68

* * *

# System: OVCAR-4 ovarian
# Test Details: NCI-60 one-dose screen, 48 h (100 = growth as untreated, 0 = no growth, -100 = all killed)
# Condition Summary: 10 µM unless noted
This is part of a sample that, as a whole, favours compounds with a hit. Of some 83,000 tested, about 20% had one in any assay.
Endpoint: growth (%)
Number in %, nothing else.

Some molecules with recorded growth:
Molecule: COc1cc2c(c(OC)c1OC)CCC(c1cccc(C(=O)Nc3ccc(C#N)cc3)c1)O2 (stereo unspecified)
growth, %: 35.3
//
Molecule: CCCc1c(OC(=O)c2ccccc2)nc2[nH]c(=O)sc2c1C
growth, %: 114
//
Molecule: Oc1c(I)cc(I)cc1CNCc1ccccn1
growth, %: 22.8
//
Molecule: COc1ccc(\C=N/N=C(N)/C(N)=N\N=C/c2ccc(OC)cc2)cc1
growth, %: 117
//
Molecule: COC(=O)c1nc(-c2ccccc2)oc1S(=O)(=O)Cc1ccccc1
growth, %: 101
//
Molecule: N=C(N)c1ccc(-c2ccc(-c3ccccc3)o2)cc1
growth, %: -4.49

Notebook: O=C(NCCNc1nccc(Nc2ccc(S(=O)(=O)Nc3ccccn3)cc2)n1)c1cccc([N+](=O)[O-])c1 , growth read as 89.9

Notebook: Cc1ccc(NC(=O)Cn2cc(CN3CCN(c4ccnc5cc(Cl)ccc45)CC3)nn2)cc1 , growth read as 76.6

Notebook: CN(C)CCNC(=O)c1cc2c3cc(Cl)ccc3[nH]c2c2ncccc12 , growth read as 34.1

Notebook: Cc1nc2sc(C(=O)Nc3cccc(Br)c3)c(N)c2cc1C(O)c1ccccc1 (stereo unspecified) , growth read as 70.5

Notebook: Cc1csc(Nc2nc(-c3ccccn3)nc(C(Cl)(Cl)Cl)n2)n1 , growth read as 83.6

Notebook: C#CCOc1ccc2ncnc(Nc3ccc(NC(=O)C=C)cc3)c2c1 , growth read as 35

Notebook: C=C1C(=O)O[C@H]2[C@H]1CC/C(COC(=O)C(=O)c1cn(C)c3ccc(Cl)cc13)=C\CC[C@@]1(C)O[C@@H]21 , growth read as -61.2

Notebook: C=C1CC[C@@H]2[C@](C)(COC(C)=O)[C@H](OC(C)=O)CC[C@@]2(C)[C@@H]1CC(Nc1ccc(S(=O)(=O)Nc2ncccn2)cc1)C1=CCOC1=O (stereo partly specified) , growth read as 42.7

* * *

# System: HOP-92 NSCLC
# Test Details: NCI-60 one-dose screen, 48 h
# Condition Summary: 10 µM unless noted
The panel holds about 83,000 compounds, 20% with a hit somewhere; the sample as a whole holds those more often. Active and inactive are the calls of the source. Rule for the calls: active = growth percent below 10; inactive = the rest.
Hi there, use one of these labels in your reply, thanks! active, inactive

Below, 5 compounds whose answers are already recorded.
Compound: CC/C(=C(/c1ccc(Cl)cc1)c1ccc(OCCN(C)C)cc1)c1ccc(Cl)cc1
Study Target: HOP-92 NSCLC
Group: inactive
--
Compound: CC(C)=CCCC(C)c1ccc(C)c2c1OCN(CCCCCO)C2 (stereo not given)
Study Target: HOP-92 NSCLC
Group: inactive
--
Compound: O=C(N/N=C/c1ccc(Cl)cc1)c1[nH]c2ccc(Cl)cc2c1-c1ccccc1
Study Target: HOP-92 NSCLC
Group: active
--
Compound: CS(=O)(=O)c1ccc(-c2cnn3ccc(-c4cccc(S(=O)(=O)C5CC5)c4)nc23)cc1
Study Target: HOP-92 NSCLC
Group: inactive
--
Compound: COc1ccc(-c2ccc(=O)oc2-c2cc(OC)c(OC)c(OC)c2)cc1O
Study Target: HOP-92 NSCLC
Group: inactive

input: What was the test verdict on CCCNC(=O)Nc1ccc2cc3ccc(NC(=O)NCCC)cc3nc2c1 ?
output: inactive

input: What was the test verdict on Nc1[nH]n2cc(-c3ccccc3)nc2c1N=Nc1ccc(S(N)(=O)=O)cc1 ?
output: inactive
